assayText: Toxicity liver stage against HepG2, at 10uM
Format: cell-based
Parameters: test concentration 10 uM, cell line HepG2-A16-CD81EGFP
cond: human, HepG2-A16-CD81EGFP cells; read-out: INHIBITION
endpointLabel: cytotoxicity at 10 µM
Param answer (str): number followed by unit.

Name the recorded cytotoxicity at 10 µM for FC(F)(F)CN1CCC(CNc2nc3ccccc3o2)C1 (stereo not drawn) .
2.7%

Name the recorded cytotoxicity at 10 µM for Cc1nonc1NC(=O)C1SCCc2ccccc21 (stereo not drawn) .
-3%

Lab note: next compound to report on.
Name the recorded cytotoxicity at 10 µM for `COCCN(CCc1ccccc1)Cc1nc2c(cnn2C)c(=O)[nH]1` .
-7.57%
